measured.on: T1, human gpNMB (Human Osteoactivin, His-tag, AcroBioSystems) (human, UniProt Q14956-2 23-486, limits assumed)
T1 sequence (looked up): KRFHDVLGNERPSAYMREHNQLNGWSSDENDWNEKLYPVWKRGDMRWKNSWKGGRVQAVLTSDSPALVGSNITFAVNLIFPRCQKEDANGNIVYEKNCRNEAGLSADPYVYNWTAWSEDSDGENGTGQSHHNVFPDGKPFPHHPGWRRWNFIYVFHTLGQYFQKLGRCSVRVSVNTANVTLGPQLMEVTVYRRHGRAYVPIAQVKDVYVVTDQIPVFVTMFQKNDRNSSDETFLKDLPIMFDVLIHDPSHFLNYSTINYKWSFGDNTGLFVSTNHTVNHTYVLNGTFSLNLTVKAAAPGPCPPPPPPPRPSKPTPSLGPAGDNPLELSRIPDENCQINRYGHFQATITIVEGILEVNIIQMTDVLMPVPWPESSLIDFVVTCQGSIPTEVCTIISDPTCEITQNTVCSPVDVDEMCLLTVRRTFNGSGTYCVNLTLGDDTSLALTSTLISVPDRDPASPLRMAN
assay.procedure: SPR Biacore 8K, antibody captured on protein A, gpNMB as analyte
quantity.kind: koff (s⁻¹)

hGPN18-5_H2L1 (antibody, V domains shown, humanized; also called hGPN18-5_VH2+VL1) VH: QVQLVQSGAEVKKPGASVKVSCKASGYTFTTYWMNWVRQAPGQGLEWIGAINPSNDYTEYNQKFKDRATMTADTSTSTVYMELSSLRSEDTAVYYCGRSYSPDYWGQGTTVTVSS VL: DIQMTQSPSSLSASVGDRVTITCKASQNVDNHVAWFQQKPGKAPKALIYSASYRYSGVPSRFSGSGSGTDFTLTISSLQPEDFATYFCQQYKSYPFTFGGGTKLEIK ... 0.00454
hGPN18-5_H2L3 (antibody, V domains shown, humanized; also called hGPN18-5_VH2+VL3; GPN18-5-VH2+VL3) VH: QVQLVQSGAEVKKPGASVKVSCKASGYTFTTYWMNWVRQAPGQGLEWIGAINPSNDYTEYNQKFKDRATMTADTSTSTVYMELSSLRSEDTAVYYCGRSYSPDYWGQGTTVTVSS VL: DIQMTQSPSSLSASVGDRVTITCKASQNVDNHVAWHQQKPGKAPKALIYSASYRYSGVPDRFTGSGSGTDFTLTISSLQPEDFADYFCQQYKSYPFTFGGGTKLEIK ... 0.00148
hGPN18-5_H1L3 (antibody, V domains shown, humanized; also called hGPN18-5_VH1+VL3; GPN18-5-VH1+VL3) VH: QVQLVQSGAEVKKPGASVKVSCKASGYTFTTYWMNWVRQAPGQGLEWIGAINPSNDYTEYNQKFKDRVTMTADTSTSTVYMELSSLRSEDTAVYYCGRSYSPDYWGQGTTVTVSS VL: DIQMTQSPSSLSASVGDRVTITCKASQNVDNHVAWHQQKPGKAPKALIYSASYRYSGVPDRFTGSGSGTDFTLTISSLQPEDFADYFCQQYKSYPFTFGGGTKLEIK ... 0.00153
hGPN18-5_H2L2 (antibody, V domains shown, humanized; also called hGPN18-5_VH2+VL2) VH: QVQLVQSGAEVKKPGASVKVSCKASGYTFTTYWMNWVRQAPGQGLEWIGAINPSNDYTEYNQKFKDRATMTADTSTSTVYMELSSLRSEDTAVYYCGRSYSPDYWGQGTTVTVSS VL: DIQMTQSPSSLSASVGDRVTITCKASQNVDNHVAWFQQKPGKAPKALIYSASYRYSGVPDRFSGSGSGTDFTLTISSLQPEDFATYFCQQYKSYPFTFGGGTKLEIK ... 0.00403
hGPN18-5_H0L0 (antibody, V domains shown, chimeric antibody with mouse GPN18-5 variable regions (VH0, VL0); also called hGPN18-5_VH0+VL0; HGPN18-5_VH0+VL0) VH: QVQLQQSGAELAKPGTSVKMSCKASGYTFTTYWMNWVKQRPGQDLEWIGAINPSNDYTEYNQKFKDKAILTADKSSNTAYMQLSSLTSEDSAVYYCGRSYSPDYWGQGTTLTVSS VL: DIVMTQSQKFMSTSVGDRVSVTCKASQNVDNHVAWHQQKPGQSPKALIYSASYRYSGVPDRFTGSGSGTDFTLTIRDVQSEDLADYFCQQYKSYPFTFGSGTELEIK ... 0.002

Hey, just so you know, these numbers are from patent EP4772193A1.
